target: T1, human TMEM106B (human, UniProt Q9NUM4 2-274); assay: FACS HEK+huTMEM 10 ug/ml;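 note: flow cytometric binding of purified mouse IgG antibodies to HEK293 cells transiently expressing human TMEM106B, read as median fluorescence intensity on live cells with propidium iodide-positive cells excluded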
T1 construct: full-length, transiently expressed on HEK293 cells, or natively expressed on HeLa, U251 and A549 cells (the cell is named under assay); also the source of the Pepscan peptides; also called huTMEM106B; huTMEM
quantityMeasured: MFI (MFI)
Give a bare numeral; the unit MFI is implied.

// solved cases for MFI follow
[
  {
    "binder": "TM-48 (antibody, V domains shown) VH: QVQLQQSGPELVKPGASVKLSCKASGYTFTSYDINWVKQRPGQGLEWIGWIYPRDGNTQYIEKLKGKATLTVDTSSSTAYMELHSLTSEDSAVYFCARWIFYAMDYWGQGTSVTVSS VL: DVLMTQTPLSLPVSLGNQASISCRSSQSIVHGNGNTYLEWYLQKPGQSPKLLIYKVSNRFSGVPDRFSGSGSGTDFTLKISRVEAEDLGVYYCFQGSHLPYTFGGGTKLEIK",
    "MFI / MFI": 38200
  },
  {
    "binder": "TM-16 (antibody, V domains shown) VH: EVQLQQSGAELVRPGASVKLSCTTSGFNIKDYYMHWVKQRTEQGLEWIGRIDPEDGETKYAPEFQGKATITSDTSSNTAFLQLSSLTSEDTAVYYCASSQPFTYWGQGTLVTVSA VL: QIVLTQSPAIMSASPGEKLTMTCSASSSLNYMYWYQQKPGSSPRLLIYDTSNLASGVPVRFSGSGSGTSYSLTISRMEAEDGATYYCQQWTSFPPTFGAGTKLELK",
    "MFI / MFI": 5980
  }
]

// next item, MFI requested
Input: For the binder shown here, TM-21 (antibody, V domains shown) VH: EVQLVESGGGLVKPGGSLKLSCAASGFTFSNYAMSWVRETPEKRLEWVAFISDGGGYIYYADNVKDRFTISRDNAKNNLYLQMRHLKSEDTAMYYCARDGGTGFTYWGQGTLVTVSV VL: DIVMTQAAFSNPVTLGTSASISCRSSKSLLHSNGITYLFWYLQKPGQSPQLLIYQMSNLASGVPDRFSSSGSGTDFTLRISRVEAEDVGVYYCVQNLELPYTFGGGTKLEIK , give the reported MFI.
Output: 69400

Where these numbers come from: patent US20200339680A1
